# Assay Info: S. cerevisiae growth modulation with rapamycin, primary screen, strain BY4716, OD600, 96 h (AID 1091); further: test concentration not given here
# Condition Summary: higher = more signal, called active from +8 up or from −8 down
Quantity Kind: z-score
One number for each entry.

Illustrative cases are given below, each with its answer.
| Molecule | z-score |
| --- | --- |
| O=C1CCCC(C2=CCCCC2=O)C1 (stereo not drawn) | 0.6 |
| COc1ccc(C#C[C@@H]2C=C[C@H](OC(C)=O)[C@@H](COC(C)=O)O2)cc1 | -0.451 |
| C=CC[C@@H]1C=C[C@H](ON=C[C@@H](C)[C@H](OCc2ccccc2)C(C)C)[C@@H](CO)O1 | -0.515 |
| CO[C@H]1COC(=O)CC=C[C@@H](C)[C@H](OC)COC(=O)CCC[C@@H]1C | -1.37 |
| CC(C)(C)N1C(=O)[C@H]2[C@H]3[C@H](O)[C@H](O)CC(=O)[C@@H]3CC[C@H]2C1=O | -0.0675 |

Look at each molecule and report its z-score.
1. C[C@H]1COC(=O)[C@@H]2CCCN2C(=O)[C@@H](C)COC(=O)[C@H](Cc2ccccc2)NC1=O
2. C#CCCCON=C1[C@H]2CCn3c(=O)n(C)c(=O)n3[C@H]2[C@H](O)[C@@H]2O[C@H]12
3. O=c1n(Cc2cc3c(cc2Cl)OCO3)c(=O)n2n1CC[C@@H]1C(=NOC[C@@H](O)COCc3ccco3)[C@H]3O[C@H]3[C@@H](O)[C@@H]12

1: -1.2; 2: 0.658; 3: 1.24
